Cited source for all entries: patent EP3064205A1

system: BXF 1352; assay: 3D clonogenic assay (PDX); format: cell-based, human; conditions: Homo sapiens; BXF 1352, Bladder; read-out: abs. IC50
Property: IC50 (µM)
Please reply with the bare figure in µM and do not write the unit itself.

-- ask Using the record for `O[C@H](c1cc(-c2ccc(Cl)cc2)nc2ccccc12)[C@@H]1CCCCN1` , state its measured IC50.
-- reply 18.5

----------
tested on: PAXF 2046; assay: 3D clonogenic assay (PDX); type: cell-based, human; conditions: Homo sapiens; PAXF 2046, Pancreas; read-out: rel. IC50
Property: pIC50
Please treat pIC50 as minus the base-10 logarithm of the molar concentration.

-- ask Using the record for O[C@H](c1cc(-c2ccc(Cl)cc2)nc2ccccc12)[C@@H]1CCCCN1 [S1] , state its measured pIC50.
-- reply 5.02

----------
assay: Pharmacokinetic evaluation in mice (plasma and brain); format: in vivo, male NMRI mice; settings: male, NMRI, mouse, po, plasma, 20 mg/kg
Property: Cmax (ng/mL)
Please reply with the bare figure in ng/mL and do not write the unit itself.

O[C@H](c1cc(-c2ccc(Cl)cc2)nc2ccccc12)[C@@H]1CCCCN1 [S1]    2210

-- ask Using the record for O[C@@H](c1cc(-c2ccc(Cl)cc2)nc2ccccc12)[C@H]1CCCCN1 [S2] , state its measured Cmax.
-- reply 2050

----------
tested on: MEXF 622; assay: 3D clonogenic assay (PDX); type: cell-based, human; conditions: Homo sapiens; MEXF 622, Melanoma; read-out: abs. IC50
Property: IC50

-- ask Using the record for O[C@H](c1cc(-c2ccc(Cl)cc2)nc2ccccc12)[C@@H]1CCCCN1 [S1] , state its measured IC50.
-- reply 9.21 µM

----------
tested on: LXFL 529; experiment: 3D clonogenic assay (PDX); format: cell-based, human; conditions: Homo sapiens; LXFL 529, Lung Large Cell; read-out: abs. IC50
Property: IC50 (µM)
Please reply with the bare figure in µM and do not write the unit itself.

-- ask Give measured IC50 for `O[C@H](c1cc(-c2ccc(Cl)cc2)nc2ccccc12)[C@@H]1CCCCN1` (LXFL 529).
-- reply 10.4

----------
system: GXA 3044; test: 3D clonogenic assay (PDX); format: cell-based, human; conditions: Homo sapiens; GXA 3044, Asian Gastric; read-out: abs. IC50
Property: IC50
Enter the number, and then the unit.

-- ask Using the record for `O[C@H](c1cc(-c2ccc(Cl)cc2)nc2ccccc12)[C@@H]1CCCCN1` , state its measured IC50.
-- reply 9.08 µM

----------
test system: PXF 1752; experiment: 3D clonogenic assay (PDX); assay type: cell-based, human; conditions: Homo sapiens; PXF 1752, Pleuramesothelioma; read-out: abs. IC50
Property: IC50 (µM)
Please reply with the bare figure in µM and do not write the unit itself.

-- ask Using the record for O[C@H](c1cc(-c2ccc(Cl)cc2)nc2ccccc12)[C@@H]1CCCCN1 [S1] , state its measured IC50.
-- reply 8.98

----------
tested on: LXFL 1674; experiment: 3D clonogenic assay (PDX); type: cell-based, human; conditions: Homo sapiens; LXFL 1674, Lung Large Cell; read-out: rel. IC50
Property: IC50 (µM)
Please reply with the bare figure in µM and do not write the unit itself.

-- ask Using the record for `O[C@H](c1cc(-c2ccc(Cl)cc2)nc2ccccc12)[C@@H]1CCCCN1` , state its measured IC50.
-- reply 6.59
